Origin of measurements: paper PMC8930183

B1: Pf12 D1D2 (residues 28-304), untagged [Plasmodium falciparum] / octa-histidine tagged Pf41 D1D2 (residues 21-368) [Plasmodium falciparum] (parent complex)
chain 1: NLTCDFNDVYKLEFHPNQQTSVTKLCNLTPNVLEKVTIKCGSDKLNYNLYPPTCFEEVYASRNMMHLKKIKEFVIGSSMFMRRSLTPNKINEVSFRIPPNMMPEKPIYCFCENKKTITINGSNGNPSSKKDIINRGIVEIIIPSLNEKVKGCDFTTSESTIFSKGYSINEISNKSSNNQQDIVCTVKAHANDLIGFKCPSNYSVEPHDCFVSAFNLSGKNENLENKLKLTNIIMDHYNNTFYSRLPSLISDNWKFFCVCSKDNEKKLVFTVEASISS
chain 2: KSHKCDFTKEKYLLSGEKEVSCEIDANPSDDITFICPNKIDSLCFHTVNISKNINQNKSTMSIQDLLYGSVVYGNTLFISPYVRTNTPFYCFCNLDTVTIQKFLKINRFLKDDDELSEADVMKHLKGGNVSEAQADEYLNKALNRFKKMKDLSKFFNDQADNTTKLNLPKSLNIPNDILNYDVYNSSNNRNDIVVKDEVTNKQIISKRGIMSVFVRSNNNVIKGCDFGNNNKNYFSHPISVAGKVNNKVCKIQGKPGELVGFKCAFEENGKVEPPNCFDQVLHKNKVTDLKTLIPGYASYTNKHSSKYPYYLKIPHFVNEQYTIQCKCKSNNSQNEYTFELDIQPGES

Variants of: B1
experiment: BLI; mutant at 1000 nM, 500 nM, and 250 nM; binding to immobilised WT Pf41; parent: 100; read off a plot
measured_property: percent of parent

Here's what some known entries look like.
variant_string	recorded_result
chain 1 R96A	~55 % WT
chain 1 Y237A	~2 % WT
chain 1 R83A	~38 % WT
chain 1 M81A	~22 % WT
chain 1 F214L	~67 % WT

Sample chain 1 F256A — what was its percent of parent?
~4 % WT

Again, but for chain 1 H207A
~116 % WT

Ok, now chain 1 F214A
~12 % WT

Same question for chain 1 R82A please.
~9 % WT
